# assayOverview: in vitro
# testSettings: rainbow trout (Oncorhynchus mykiss)
# Text: Subsequently, medium was replaced with exposure medium.
measuredQuantity: viability at 24 h, 150 µM

Query c1ccc2nc3ccccc3cc2c1 yields viability at 24 h, 150 µM of ~50%

====

# assayOverview: Viability studies (CellTiter-Blue® and CellTiter-Glo®, not told apart)
# testSettings: rainbow trout (Oncorhynchus mykiss)
measuredQuantity: viability at 24 h, 50 µM

Query O=c1cc(-c2ccccc2)oc2ccc3ccccc3c12 [BNF, β-naphthoflavone] yields viability at 24 h, 50 µM of ~50%
